# Test system: Candida albicans
# protocol_conditions: Concentration 32 ug.mL-1; ASSAY_TEST Inhibition of Fungal Growth; detection method Absorption (OD530)
# Description: Antifungal activity against Candida albicans ATCC 90028 (CO-ADD:FG_001); MIC in YNB media using NBS plates, by OD630
Entries with a potency or affinity are not part of this list.
The molecules listed here are annotated with their Inhibition.
property_name: Inhibition (%)

Cc1nnc2ccc(S(=O)(=O)N(Cc3ccc(Cl)cc3)c3cccc(F)c3)cn12: 3.61
O=S(=O)(c1ccc2nncn2c1)N(Cc1cccc(F)c1)c1ccc(F)c(F)c1: 5.52
Cc1ccc(NC(=O)Cn2nc3c(SC4CCCCC4)nccn3c2=O)cc1F: -0.51
Cc1ccc(-c2cc3c4nn(CC(=O)Nc5ccc(C)c(Cl)c5)c(=O)n4ccn3n2)cc1C: 8.38
COc1cccc(NC(=O)Cn2nc3c(=O)n(-c4ccc(Br)cc4)ccn3c2=O)c1: 1.08

---

# Tested on: Cryptococcus neoformans
# protocol_conditions: Concentration 32 ug.mL-1; ASSAY_TEST Inhibition of Fungal Growth; detection method Resazurin; Absorption (OD600-OD570); plate type 384well; NBS; CORNING #3640
# Description: Antifungal activity against Cryptococcus neoformans H99 ATCC 208821 (CO-ADD:FG_002); MIC in YNB media using NBS plates, by Resazurin OD(600-570)
Entries with a potency or affinity are not part of this list.
property_name: Inhibition (%)

Cc1cccc(N(Cc2ccc(F)cc2)S(=O)(=O)c2cccn3c(C)nnc23)c1: -8.62
Cc1ccc(CN(c2ccc(C(C)C)cc2)S(=O)(=O)c2cccn3c(C)nnc23)cc1: -9.63
Cc1ccc(-c2cc3c4nn(CC(=O)Nc5cccc(C)c5C)c(=O)n4ccn3n2)cc1C: -23.37
O=c1c2nn(Cc3ccccc3F)c(=O)n2ccn1-c1ccccc1: -10.1
O=S(=O)(c1cccn2cnnc12)N(Cc1ccc(F)cc1)c1ccc(F)c(F)c1: -6.23
CC(C)c1nnc2c(=O)n(CC(=O)Nc3ccc(Cl)c(Cl)c3)c3ccccc3n12: -9.31
COc1ccc(-c2cc3c4nnc(SCC(=O)Nc5cc(Cl)ccc5C)n4ccn3n2)cc1: -34.55
CCOc1ccc(NC(=O)Cn2nc3c(SCc4ccc(Cl)cc4)nccn3c2=O)cc1: -25.81
Cc1ccc(-c2ccc3nn(Cc4cccc(Br)c4)c(=O)n3n2)cc1C: -18.95
O=S(=O)(c1ccc2nncn2c1)N(Cc1ccccc1F)c1ccc2c(c1)OCO2: -6.91

---

# Test system: Klebsiella pneumoniae
# protocol_conditions: Concentration 32 ug.mL-1;; ASSAY_TEST Inhibition of Bacterial Growth; detection method Absorption (OD600); MEDIA CAMHB; plate type 384well; NBS; CORNING #3640; time 18 hr
# Description: Antibacterial activity against Klebsiella pneumoniae MDR ATCC 70063 (CO-ADD:GN_003); MIC in CAMBH media using NBS plates, by OD(600)
Results with a measured potency or affinity are listed apart.
The compounds listed here are annotated with their Inhibition.
property_name: Inhibition

N#CCSc1nnc2c(=O)n(-c3ccccc3)ccn12: 18.13%
O=C(Cn1nc2ccc(Sc3cccc(F)c3)nn2c1=O)Nc1ccc(Cl)cc1: -0.35%
COc1ccc(C(=O)CSc2nnc3c(=O)n(-c4ccc(F)c(F)c4)ccn23)cc1: 16.31%
Cc1cc(Nc2ccc(F)cc2)nc2nn(Cc3cccc(C#N)c3)c(=O)n12: 10.49%
Cc1ccc(-c2ccc3nn(Cc4ccc(N5CCCC5=O)cc4)c(=O)n3n2)cc1: 8.04%

---

# Tested on: Klebsiella pneumoniae
# protocol_conditions: Concentration 32 ug.mL-1;; ASSAY_TEST Inhibition of Bacterial Growth; detection method Absorption (OD600); MEDIA CAMHB; plate type 384well; NBS; CORNING #3640; time 18 hr
Entries with a potency or affinity are not part of this list.
property_name: Inhibition (%)

CCc1nnc2c(=O)n(CC(=O)Nc3cc(Cl)ccc3Cl)c3ccccc3n12: 6.11
COc1ccc(N2CCN(C(=O)Cn3nc4c(Oc5ccc(C)cc5)nccn4c3=O)CC2)cc1: 7.21
Cc1ccc(C)c(CSc2nnc3c(=O)n(-c4ccc(F)c(F)c4)ccn23)c1: -0.25
O=c1c2sccc2n2c(=O)n(Cc3c(F)cccc3Cl)nc2n1CCc1ccccc1: 4.07
CCOc1ccc(-n2ccn3c(SC(C)C(=O)Nc4cc(OC)cc(OC)c4)nnc3c2=O)cc1 (stereo not given): 7.45
CCc1ccc(NC(=O)Cn2nc3ccc(SC(C)(C)C)nn3c2=O)cc1: 14.6
CC(C)c1nnc2c(=O)n(CC(=O)Nc3cccc(C#N)c3)c3ccccc3n12: 14.72
COc1cccc(Sc2nc3ccccc3n3c(=O)n(CC(=O)N4CCCc5ccccc54)nc23)c1: 2.78
COc1ccc(NC(=O)Cn2nc3c(SC4CCCCC4)nccn3c2=O)cc1Cl: -2.37
CSc1cccc(NC(=O)Cn2nc3ccc(-c4ccccc4)nn3c2=O)c1: -3.17
COC(=O)c1ccc(NC(=O)Cn2nc3c(Oc4cccc(OC)c4)nccn3c2=O)cc1: 5.51
O=C(CSc1nnc2c(=O)n(-c3ccccc3)ccn12)Nc1ccc(F)cc1: 3.51
CCCNC(=O)Cn1nc2n(Cc3ccco3)c(=O)c3sccc3n2c1=O: 8.71
O=C(CSc1nnc2c(=O)n(-c3ccc(Br)cc3)ccn12)c1ccc(F)cc1: 7.31
COC(=O)c1ccccc1NC(=O)Cn1nc2c3cc(-c4ccc(OC)cc4)nn3ccn2c1=O: 20.11
CCCCOc1ccc(-c2cc3c4nnc(SCC(=O)NCc5ccc(C)cc5)n4ccn3n2)cc1: 3.76
CCC(Sc1nnc2c(=O)n(-c3cccc(OC)c3)ccn12)C(=O)Nc1cc(OC)cc(OC)c1 (stereo not given): 9.6
COc1ccc(-c2cc3c4nn(CC(=O)Nc5ccc(OC)c(Cl)c5)c(=O)n4ccn3n2)cc1: -0.45
Cc1ccc(NC(=O)Cn2nc3c4cc(-c5ccc(Cl)cc5)nn4ccn3c2=O)cc1F: 4.91
CCc1nnc2c(SCC(=O)Nc3cc(Cl)ccc3C)nc3ccccc3n12: 15.39

---

# System: Klebsiella pneumoniae
# protocol_conditions: Concentration 32 ug.mL-1;; ASSAY_TEST Inhibition of Bacterial Growth; detection method Absorption (OD600); MEDIA CAMHB; plate type 384well; NBS; CORNING #3640; time 18 hr
Results with a measured potency or affinity are listed apart.
property_name: Inhibition (%)

CCc1ccc(N(Cc2cc(F)cc(F)c2)S(=O)(=O)c2cccn3c(C)nnc23)cc1: 2.59
COc1ccc(C)cc1NC(=O)Cn1nc2cc(C)nc(Nc3ccc(F)cc3)n2c1=O: 2.21
COc1ccccc1-n1ccn2c(SCC(=O)Nc3ccc(C)cc3Cl)nnc2c1=O: 5.82
CCOc1ccc(NC(=O)Cn2nc3c(N4CCCC(C)C4)nccn3c2=O)cc1 (stereo not given): 13.07
Cc1ccc(Oc2nccn3c(=O)n(CC(=O)Nc4ccccc4Br)nc23)cc1: 15.36
O=c1c2sccc2n2c(=O)n(Cc3ccc(Br)cc3)nc2n1CCc1ccccc1: -2.03
COc1ccc(C(=O)CSc2nnc3c(=O)n(-c4ccc(Br)cc4)ccn23)cc1: 6.12
CC(C)c1nnc2c(=O)n(CC(=O)Nc3ccc(F)cc3F)c3ccccc3n12: 15.02
COc1ccc(NC(=O)c2ccc3nn(CC(=O)Nc4ccc(S(C)(=O)=O)cc4)c(=O)n3c2)cc1: 1.84
O=C(Cn1nc2n(CCc3ccccc3)c(=O)c3ccccc3n2c1=O)Nc1ccc2c(c1)OCO2: 5.15
COc1cc(NC(=O)CSc2nnc3c(=O)n(-c4cccc(F)c4)ccn23)cc(OC)c1: 4.95
COc1cccc(-n2ccn3c(SCC(=O)c4c[nH]c5ccc(OC)cc45)nnc3c2=O)c1: 12.06
CCc1ccc(N(Cc2cccc(OC)c2)S(=O)(=O)c2cccn3cnnc23)cc1: 14.16
Cn1c(=O)c2ccc(C(=O)NC3CCCC3)cc2n2c(SCc3c(F)cccc3Cl)nnc12: 14.92
CCc1ccccc1Sc1nccn2c(=O)n(CC(=O)Nc3ccc(C)cc3)nc12: -4.69
Cc1cc(C)cc(N(Cc2ccccc2)S(=O)(=O)c2cccn3c(C)nnc23)c1: -0.64
COc1ccc(CNC(=O)Cn2nc3c(Sc4ccc(C)cc4C)nccn3c2=O)cc1: 6.84
O=C(Cn1nc2ccc(Sc3cccc(F)c3)nn2c1=O)Nc1ccc2c(c1)OCCO2: 12.38
Cc1ccc(-c2ccc3nn(CC(=O)Nc4ccc(Cl)cc4F)c(=O)n3n2)cc1: 13.29
Cc1nnc2ccc(S(=O)(=O)N(Cc3ccccc3F)c3cccc(Cl)c3)cn12: 8.99

---

# System: Cryptococcus neoformans
# protocol_conditions: Concentration 32 ug.mL-1; ASSAY_TEST Inhibition of Fungal Growth; detection method Resazurin; Absorption (OD600-OD570); plate type 384well; NBS; CORNING #3640
Results with a measured potency or affinity are listed apart.
property_name: Inhibition

COc1ccc(CN(c2ccc(OC)cc2)S(=O)(=O)c2ccc3nnc(C)n3c2)cc1: -1.1%
CCc1cccc(C)c1NC(=O)CSc1nnc2ccc(C(=O)Nc3cccc(F)c3)cn12: -4.75%
COc1cc(OC)c(NC(=O)Cn2nc3c(Sc4cccc(C)c4)nccn3c2=O)cc1Cl: -23.34%
COc1ccc(Cl)cc1NC(=O)CSc1nnc2c(=O)n(-c3ccc(C)c(C)c3)ccn12: -9.59%
C=Cc1ccc(CN(c2cccc(Cl)c2)S(=O)(=O)c2cccn3c(C)nnc23)cc1: -16.09%
Cc1cccc(NC(=O)Cn2nc3c(Sc4ccccc4)nccn3c2=O)c1: -4.87%
Cc1ccc(CN(c2cccc(F)c2)S(=O)(=O)c2ccc3nnc(C)n3c2)cc1: -8.87%
CCc1nnc2ccc(S(=O)(=O)N(Cc3ccc(OC)cc3)c3cccc(F)c3)cn12: -8.59%
COc1ccc(NC(=O)Cn2nc3c(N4CCCC(C)C4)nccn3c2=O)cc1OC (stereo not given): -7.35%
Cc1ccc(NC(=O)Cn2nc3ccc(SC(C)(C)C)nn3c2=O)c(C)c1: -21.84%
